# Test name: n-octanol-water distribution coefficient, log D of the compound at pH 7.4 by shake flask method
# Type: physicochemical
Please enter True where logD is greater than or equal to 2, and False where it is lower.

Q: Test whether the molecule `Oc1ccc(-c2c3nc(c(-c4ccccc4)c4ccc(s4)c(-c4ccccc4)c4nc(c(-c5ccccc5)c5ccc2s5)C=C4)C=C3)cc1` records logD of 2 or higher.
Ans: True

Q: # repeat for `CCN(CC)c1ccc2c(-c3ccccc3C(=O)O)c3ccc(=[N+](CC)CC)cc-3oc2c1`
Ans: True

Q: And then `C1=Cc2nc1c(-c1ccccc1)c1ccc(s1)c(-c1ccccc1)c1nc(c(-c3ccc(OCCC[P+](c4ccccc4)(c4ccccc4)c4ccccc4)cc3)c3ccc(s3)c2-c2ccc(OCCC[P+](c3ccccc3)(c3ccccc3)c3ccccc3)cc2)C=C1.[Br-].[Br-]` , what is it?
Ans: False
